EC50 overview
assay-system: UniProt P30542
Sequence (P30542 whole entry): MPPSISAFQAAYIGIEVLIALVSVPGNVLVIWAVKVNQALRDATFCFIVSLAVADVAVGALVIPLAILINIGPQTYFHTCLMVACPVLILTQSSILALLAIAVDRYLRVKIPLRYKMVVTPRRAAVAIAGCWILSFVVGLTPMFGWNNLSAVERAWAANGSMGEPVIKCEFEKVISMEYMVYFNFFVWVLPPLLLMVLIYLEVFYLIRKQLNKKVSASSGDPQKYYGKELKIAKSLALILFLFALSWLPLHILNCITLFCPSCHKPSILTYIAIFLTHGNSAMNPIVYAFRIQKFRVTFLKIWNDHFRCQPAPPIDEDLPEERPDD
test-method-notes: GTPγS scintillation proximity assay, agonist testing
run-conditions: agonist activity; membrane extracts of CHO-K1 cells expressing recombinant human A1; read-out: A1AR EC50
endpoint-label: EC50 (nM)

[[record]]
compound = "N#Cc1c(N)nc(OCC2CCOCC2)c(C#N)c1-c1ccc(OC2COC2)cc1"
endpoint_label = "EC50"
result_value = 229

[[record]]
compound = "CC1(CSc2nc(N)c(C#N)c(-c3ccc(OC4COC4)cc3)c2C#N)COC1 [Compound 226]"
endpoint_label = "EC50"
result_value = 22

[[record]]
compound = "COCCOc1ccc(-c2c(C#N)c(N)nc(SCc3ccc4cc[nH]c4c3)c2C#N)cc1"
endpoint_label = "EC50"
result_value = 34.3

[[record]]
compound = "COCCOc1ccc(-c2c(C#N)c(N)nc(S[C@H](C)c3cccnc3)c2C#N)cc1"
endpoint_label = "EC50"
result_value = 276

